Assay: Pharmacokinetics of released PEGylated protease inhibitor following P.O. administration of prodrugs in rats
Type: in vivo, male Sprague-Dawley rats
Design: concentration or dose not given beside the values
Conditions: mPEG3-atazanavir in plasma after PO administration of mPEG3-ATV or of the listed prodrug, rats (n = 4-5)
quantity: AUCall Mean (ng·h/mL)
Numbers only, in ng·h/mL.

// input: 4 molecules below; output: AUCall Mean for each
1. CCOC(=O)OC(CN(Cc1ccc(-c2ccccn2)cc1)NC(=O)C(NC(=O)OC)C(C)(C)C)C(Cc1ccccc1)NC(=O)C(NC(=O)OCCOCCOCCOC)C(C)(C)C (stereo not shown) [mPEG3-atazanavir ethyl carbonate, mPEG3-Atazanavir Ethyl Carbonate]
2. COCCOCCOCCOC(=O)N[C@H](C(=O)N[C@@H](Cc1ccccc1)[C@H](CN(Cc1ccc(-c2ccccn2)cc1)NC(=O)[C@@H](NC(=O)OC)C(C)(C)C)OP(=O)(O)O)C(C)(C)C [mPEG3-ATV-phosphate, mPEG3-atazanavir phosphate]
3. CCCCCCCCCCCCCCCCOCC(COP(=O)(O)OC(CN(Cc1ccc(-c2ccccn2)cc1)NC(=O)C(NC(=O)OC)C(C)(C)C)C(Cc1ccccc1)NC(=O)C(NC(=O)OCCOCCOCCOC)C(C)(C)C)OC (stereo not shown)
4. CCCCCC(=O)O[C@@H](CN(Cc1ccc(-c2ccccn2)cc1)NC(=O)[C@@H](NC(=O)OC)C(C)(C)C)[C@H](Cc1ccccc1)NC(=O)[C@@H](NC(=O)OCCOCCOCCOC)C(C)(C)C [C5H11CO-mPEG3-ATV, C5H11CO-mPEG3-atazanavir]

Marked response:
1: 199; 2: 16.8; 3: 7.72; 4: 33.9

====

Kindly supply the reported Tmax Median values for the records listed here.
Test: Pharmacokinetics of released PEGylated protease inhibitor following P.O. administration of prodrugs in rats
Format: in vivo, male Sprague-Dawley rats
Details: mPEG5-atazanavir in plasma after PO administration of mPEG5-ATV or of the listed prodrug, rats (n = 4-5)
Give bare numbers, in h.

CCOCO[C@@H](CN(Cc1ccc(-c2ccccn2)cc1)NC(=O)[C@@H](NC(=O)OC)C(C)(C)C)[C@H](Cc1ccccc1)NC(=O)[C@@H](NC(=O)OCCOCCOCCOCCOCCOC)C(C)(C)C; 1.00
CCOC(=O)O[C@@H](CN(Cc1ccc(-c2ccccn2)cc1)NC(=O)[C@@H](NC(=O)OC)C(C)(C)C)[C@H](Cc1ccccc1)NC(=O)[C@@H](NC(=O)OCCOCCOCCOCCOCCOC)C(C)(C)C.Cl [mPEG5-Atazanavir - Ethyl Carbonate HCl, mPEG5-Atazanavir Ethyl Carbonate]; 2.00
COCCOCCOCCOCCOCCOC(=O)NC(C(=O)NC(Cc1ccccc1)C(CN(Cc1ccc(-c2ccccn2)cc1)NC(=O)C(NC(=O)OC)C(C)(C)C)OCOCCOC)C(C)(C)C (stereo not shown); 2.00

Next item in the queue.
Exam item: Sample COCCOCCOCCOCCOCCOC(=O)NC(C(=O)NC(Cc1ccccc1)C(CN(Cc1ccc(-c2ccccn2)cc1)NC(=O)C(NC(=O)OC)C(C)(C)C)OC(=O)COCCOC(=O)C(Cc1ccccc1)NC(=O)C(N)Cc1ccccc1)C(C)(C)C.Cl (stereo not drawn) [CME Phe-Phe-mPEG5-Atazanavir HCl, mPEG5-atazanavir-ethoxy-CME-Phe-Phe] — what was its Tmax Median?
Marked response: 24.0

====

Test: Pharmacokinetics of released PEGylated protease inhibitor following P.O. administration of prodrugs in rats
Type: in vivo, male Sprague-Dawley rats
Settings: mPEG6-atazanavir in plasma after PO administration of mPEG6-ATV or of the listed prodrug, rats (n = 4-5)
Method: Pharmacokinetic analysis of protease inhibitors described herein was conducted. To evaluate the pharmacokinetics of PEGylated protease inhibitor conjugates with releasable lipophilic attachments, test compounds were administered to male Sprague-Dawley rats. At various times following test article administration, serial blood samples were collected from indwelling jugular vein catheters and transferred to micro-tubes containing 7.5 μL of 20% w/v K2EDTA as an anticoagulant. […]
I would appreciate it if you labelled entries yes when Cmax Mean is 10 ng/mL or higher, otherwise no.

Worked set:
COCCOCCOCCOCCOCCOCCOC(=O)N[C@H](C(=O)N[C@@H](Cc1ccccc1)[C@H](CN(Cc1ccc(-c2ccccn2)cc1)NC(=O)[C@@H](NC(=O)OC)C(C)(C)C)OC(=O)CNC(=O)[C@@H](N)CC(C)C)C(C)(C)C.Cl [Leu-Gly-mPEG6-ATV, Leu-Gly-mPEG6-Atazanavir Hydrochloride]; yes
COCCOCCOCCOCCOCCOCCOC(=O)N[C@H](C(=O)N[C@@H](Cc1ccccc1)[C@@H](O)CN(Cc1ccc(-c2ccccn2)cc1)NC(=O)[C@@H](NC(=O)OC)C(C)(C)C)C(C)(C)C; yes
COCCOCCOCCOCCOCCOCCOC(=O)N[C@H](C(=O)N[C@@H](Cc1ccccc1)[C@H](CN(Cc1ccc(-c2ccccn2)cc1)NC(=O)[C@@H](NC(=O)OC)C(C)(C)C)OC(=O)CNC(=O)[C@@H](N)Cc1ccccc1)C(C)(C)C.Cl [Phe-Gly-mPEG6-ATV, Phe-Gly-mPEG6-Atazanavir Hydrochloride]; no

Exam item: Threshold query (Cmax Mean >= 10 ng/mL) on COCCOCCOCCOCCOCCOCCOC(=O)NC(C(=O)NC(Cc1ccccc1)C(CN(Cc1ccc(-c2ccccn2)cc1)NC(=O)C(NC(=O)OC)C(C)(C)C)OP(=O)(O)O)C(C)(C)C (centres unmarked) [mPEG6-ATV-phosphate, mPEG6-atazanavir phosphate]
Marked response: no

Exam item: Threshold query (Cmax Mean >= 10 ng/mL) on CCOCOC(CN(Cc1ccc(-c2ccccn2)cc1)NC(=O)C(NC(=O)OC)C(C)(C)C)C(Cc1ccccc1)NC(=O)C(NC(=O)OCCOCCOCCOCCOCCOCCOC)C(C)(C)C (centres unmarked)
Marked response: yes

Exam item: Threshold query (Cmax Mean >= 10 ng/mL) on CCOC(CC)OC(CN(Cc1ccc(-c2ccccn2)cc1)NC(=O)C(NC(=O)OC)C(C)(C)C)C(Cc1ccccc1)NC(=O)C(NC(=O)OCCOCCOCCOCCOCCOCCOC)C(C)(C)C (mixture of isomers)
Marked response: yes

Exam item: Threshold query (Cmax Mean >= 10 ng/mL) on CCCCCC(=O)O[C@@H](CN(Cc1ccc(-c2ccccn2)cc1)NC(=O)[C@@H](NC(=O)OC)C(C)(C)C)[C@H](Cc1ccccc1)NC(=O)[C@@H](NC(=O)OCCOCCOCCOCCOCCOCCOC)C(C)(C)C [C5H11CO-mPEG6-ATV, C5H11CO-mPEG6-atazanavir]
Marked response: yes

Exam item: Threshold query (Cmax Mean >= 10 ng/mL) on COCCOCCOCCOCCOCCOCCOC(=O)NC(C(=O)NC(Cc1ccccc1)C(CN(Cc1ccc(-c2ccccn2)cc1)NC(=O)C(NC(=O)OC)C(C)(C)C)OC(=O)CNC(=O)C(N)C(C)C)C(C)(C)C.Cl (stereo not drawn) [Val-Gly-mPEG6-ATV, Val-GIy-mPEG6-Atazanavir Hydrochloride]
Marked response: no

====

Experiment: Pharmacokinetics of PEGylated protease inhibitor prodrugs in rats
Format: in vivo, male Sprague-Dawley rats
Conditions: male, Sprague-Dawley, rat, in vivo, prodrug in plasma, mean ± SD, read-out: Cmax
Counter-ions that a name gives are not always drawn.
quantity: Cmax (ng/mL)
Answers are plain numbers, in ng/mL.

Here is how some molecules turned out for Cmax.
COCCOCCOCCOCCOCCOC(=O)N[C@H](C(=O)N[C@@H](Cc1ccccc1)[C@H](CN(Cc1ccc(-c2ccccn2)cc1)NC(=O)[C@@H](NC(=O)OC)C(C)(C)C)OC(=O)CNC(=O)[C@@H](N)Cc1ccccc1)C(C)(C)C [Phe-Gly-mPEG5-Atazanavir HCl, Phe-Gly-mPEG5-Atazanavir Hydrochloride]; 0.895
COCCOCCOCCOC(=O)N[C@H](C(=O)N[C@@H](Cc1ccccc1)[C@H](CN(Cc1ccc(-c2ccccn2)cc1)NC(=O)[C@@H](NC(=O)OC)C(C)(C)C)OC(=O)[C@H](Cc1ccccc1)NC(=O)[C@@H](N)C(C)C)C(C)(C)C [Val-Phe-mPEG3-Atazanavir, Val-Phe-mPEG3-Atazanavir Hydrochloride]; 334
COCCOCCOCCOCCOCCOC(=O)N[C@H](C(=O)N[C@@H](Cc1ccccc1)[C@H](CN(Cc1ccc(-c2ccccn2)cc1)NC(=O)[C@@H](NC(=O)OC)C(C)(C)C)OC(=O)CNC(=O)[C@@H](N)C(C)C)C(C)(C)C [Val-Gly-mPEG5-Atazanavir HCl, Val-Gly-mPEG5-Atazanavir Hydrochloride]; 33.7
COCCOCCOCCOC(=O)N[C@H](C(=O)N[C@@H](Cc1ccccc1)[C@H](CN(Cc1ccc(-c2ccccn2)cc1)NC(=O)[C@@H](NC(=O)OC)C(C)(C)C)OC(=O)[C@H](Cc1ccccc1)NC(=O)[C@@H](N)CC(C)C)C(C)(C)C.Cl [Leu-Phe-mPEG3-Atazanavir, Leu-Phe-mPEG3-Atazanavir Hydrochloride]; 41.9
COCCOCCOCCOCCOCCOC(=O)N[C@H](C(=O)N[C@@H](Cc1ccccc1)[C@H](CN(Cc1ccc(-c2ccccn2)cc1)NC(=O)[C@@H](NC(=O)OC)C(C)(C)C)OC(=O)[C@H](CC(C)C)NC(=O)[C@@H](N)CC(C)C)C(C)(C)C.Cl [Leu-Leu-mPEG5-Atazanavir HCl, Leu-Leu-mPEG5-Atazanavir Hydrochloride]; 7.21

// input: 3 molecules below; output: Cmax for each
1. COCCOCCOCCOCCOCCOC(=O)N[C@H](C(=O)N[C@@H](Cc1ccccc1)[C@H](CN(Cc1ccc(-c2ccccn2)cc1)NC(=O)[C@@H](NC(=O)OC)C(C)(C)C)OC(=O)CNC(=O)[C@@H](N)CC(C)C)C(C)(C)C [Leu-Gly-mPEG5-Atazanavir HCl, Leu-Gly-mPEG5-Atazanavir Hydrochloride]
2. COCCOCCOCCOCCOCCOC(=O)N[C@H](C(=O)N[C@@H](Cc1ccccc1)[C@H](CN(Cc1ccc(-c2ccccn2)cc1)NC(=O)[C@@H](NC(=O)OC)C(C)(C)C)OC(=O)[C@H](CC(C)C)NC(=O)[C@@H](N)Cc1ccccc1)C(C)(C)C [Phe-Leu-mPEG5-Atazanavir HCl, Phe-Leu-mPEG5-Atazanavir Hydrochloride]
3. COCCOCCOCCOC(=O)N[C@H](C(=O)N[C@@H](Cc1ccccc1)[C@H](CN(Cc1ccc(-c2ccccn2)cc1)NC(=O)[C@@H](NC(=O)OC)C(C)(C)C)OC(=O)[C@H](Cc1ccccc1)NC(=O)[C@@H](N)Cc1ccccc1)C(C)(C)C [Phe-Phe-mPEG3-Atazanavir, Phe-Phe-mPEG3-Atazanavir Hydrochloride]

Marked response:
1. 0.479
2. 17
3. 112
